Experimental Target: T1, hK1 (human tissue kallikrein 1), recombinant (human, UniProt P06870 25-262)
T1 construct: Expressed in P. pastoris from KLK1 cDNA and purified; enzymatically active; also called KLK1; Recombinant (Pichia) Kallikrein
Protocol Text: SPR
# Lookup of reported Kd keyed by entry

Binder: M0135-B05 (Fab, V domains shown) VH: EVQLLESGGGLVQPGGSLRLSCAASGFTFSHYLMDWVRQAPGKGLEWVSVIYPSGGHTNYADSVKGRFTISRDNSKNTLYLQMNSLRAEDTAVYYCARVGVWYGMDVWGQGTTVTVSS VL: DIQMTQSPSSLSASVGDRVTITCRASQSISTYLNWYQQKPGKAPNLLIYAASSLQSGVPSRFSGSGSGTDFTLTVSSLQPEDFGTYYCQQYNSFPFSFGQGTRLEINR
Kd [nM]: 5.9
//
Binder: M0136-D07 (Fab, V domains shown) VH: EVQLLESGGGLVQPGGSLRLSCAASGFTFSPYKMGWVRQAPGKGLEWVSSIYPSGGVTTYADSVKGRFTISRDNSKNTLYLQMNSLRAEDTAVYYCTKNINLRYDILTGYFDIWGQGTTVTVSS VL: DIQMTQSPSSVSASVGDRVTITCRASQDIASWLAWYQQKPEKVPKLLIYAASSLQSGVPSRFSGSGSGTDFTLTINSLQPEDFATYYCQQANSFPFTFGPGTKVDFKR
Kd [nM]: 2.26
//
Binder: M0115-F08 (Fab, V domains shown) VH: EVQLLESGGGLVQPGGSLRLSCAASGFTFSHYVMVWVRQAPGKGLEWVSSIYPSGGMTVYADSVKGRFTISRDNSKNTLYLQMNSLRAEDTAVYYCARRGIANSFNIWGQGTMVTVSS VL: AQSELTQPASVSGSPGQSITISCTGTSSDVGGYNYVSWYQQHPGKAPKLMIYEVSNRPSGVSNRFSGSKSGNTASLTISGLQAEDEADYYCSSYTSSSTWVFGGGTKLTVLG
Kd [nM]: 32.6
